Sourced from patent US20120323164A1

# protocol-summary: Photodecomposition of phthalocyanines in toluene under white light, no added radical source
# measurement-parameters: time 8 h, radiation 344 kJ/mol × 10^−6; toluene ~9 μM, no added alkene, white light 1.2 kJ/s/m^2
value-kind: decomp (%)
Give a bare numeral; the unit % is implied.

# input I'd like to know its decomp (%). The compound in question is C=C[Si](C=C)(C=C)O[Si]1(O[Si](C=C)(C=C)C=C)n2c3c4ccccc4c2N=C2N=C(N=c4c5ccccc5c(n41)=NC1=NC(=N3)c3ccccc31)c1ccccc12 [Pc 279, SiPc[OSi(CH═CH2)3]2]
# output 0

# input I'd like to know its decomp (%). The compound in question is CC1=C(/C=C/C(C)=C/C=C/C(C)=C/C(=O)O[Si]2(OC(=O)/C=C(C)/C=C/C=C(C)/C=C/C3=C(C)CCCC3(C)C)n3c4c5ccccc5c3N=C3N=C(N=c5c6ccccc6c(n52)=NC2=NC(=N4)c4ccccc42)c2ccccc23)C(C)(C)CCC1 (stereo not shown) [Pc 301, SiPc[OC(O)(CH═C(CH3)CH═CH)2C6H6(CH3)3]2]
# output 32

# input I'd like to know its decomp (%). The compound in question is CN(C)CCCCCC[Si](C)(C)O[Si]1(O[Si](C)(C)CCCCCCN(C)C)n2c3c4ccccc4c2N=C2N=C(N=c4c5ccccc5c(n41)=NC1=NC(=N3)c3ccccc31)c1ccccc12 [Pc 85, SiPc[OSi(CH3)2(CH2)6N(CH3)2]2]
# output 5

# input I'd like to know its decomp (%). The compound in question is CCCCCCCC/C=C\CCCCCCCC(=O)O[Si]1(OC(=O)CCCCCCC/C=C\CCCCCCCC)n2c3c4ccccc4c2N=C2N=C(N=c4c5ccccc5c(n41)=NC1=NC(=N3)c3ccccc31)c1ccccc12 [Pc 295, SiPc[OC(O)(CH2)7CH═CH(CH2)7CH3]2]
# output 4

---

# protocol-summary: Photodecomposition of phthalocyanines in toluene under white light, no added radical source
# measurement-parameters: time 8 h, radiation 344 kJ/mol × 10^−6; toluene ~9 μM, no added alkene, white light 1.2 kJ/s/m^2
value-kind: decomp (%)
Give a bare numeral; the unit % is implied.

# input I'd like to know its decomp (%). The compound in question is "CCCCC/C=C\C/C=C\C/C=C\C/C=C\CCCC(=O)O.CCCCC/C=C\C/C=C\C/C=C\C/C=C\CCCC(=O)O.CN(C)CCC[Si](C)(C)O[Si]1(O[Si](C)(C)CCCN(C)C)n2c3c4ccccc4c2N=C2N=C(N=c4c5ccccc5c(n41)=NC1=NC(=N3)c3ccccc31)c1ccccc12"
# output 20

# input I'd like to know its decomp (%). The compound in question is "CCCCC/C=C\C/C=C\CCCCCCCC(=O)O.CCCCC/C=C\C/C=C\CCCCCCCC(=O)O.CN(C)CCC[Si](C)(C)O[Si]1(O[Si](C)(C)CCCN(C)C)n2c3c4ccccc4c2N=C2N=C(N=c4c5ccccc5c(n41)=NC1=NC(=N3)c3ccccc31)c1ccccc12"
# output 21

# input I'd like to know its decomp (%). The compound in question is CSCCC[Si](C)(C)O[Si]1(O[Si](C)(C)CCCSC)n2c3c4ccccc4c2N=C2N=C(N=c4c5ccccc5c(n41)=NC1=NC(=N3)c3ccccc31)c1ccccc12 [Pc 97, SiPc[OSi(CH3)2(CH2)3SCH3]2]
# output 44

# input I'd like to know its decomp (%). The compound in question is C[Si](C)(CCCN(c1ccccc1)c1ccccc1)O[Si]1(O[Si](C)(C)CCCN(c2ccccc2)c2ccccc2)n2c3c4ccccc4c2N=C2N=C(N=c4c5ccccc5c(n41)=NC1=NC(=N3)c3ccccc31)c1ccccc12 [Pc 159, SiPc[OSi(CH3)2(CH2)3N(C6H5)2]2]
# output 1

# input I'd like to know its decomp (%). The compound in question is CN(C)CCC[Si](C)(C)O[Si]1(O)n2c3c4ccccc4c2N=C2N=C(N=c4c5ccccc5c(n41)=NC1=NC(=N3)c3ccccc31)c1ccccc12 (centres unmarked)
# output 13

# input I'd like to know its decomp (%). The compound in question is CN(C)CCC[Si](C)(C)O[Si]1(O[Si](C)(C)CCCN(C)C)n2c3c4ccccc4c2N=C2N=C(N=c4c5ccccc5c(n41)=NC1=NC(=N3)c3ccccc31)c1ccccc12 [Pc 12, SiPc[OSi(CH3)2(CH2)3N(CH3)2]2]
# output 21

# input I'd like to know its decomp (%). The compound in question is "CCCCCCCCCCCCCCCCCC(=O)O.CCCCCCCCCCCCCCCCCC(=O)O.CN(C)CCC[Si](C)(C)O[Si]1(O[Si](C)(C)CCCN(C)C)n2c3c4ccccc4c2N=C2N=C(N=c4c5ccccc5c(n41)=NC1=NC(=N3)c3ccccc31)c1ccccc12"
# output 21

# input I'd like to know its decomp (%). The compound in question is C=CC[Si](C)(C)O[Si]1(O[Si](C)(C)CC=C)n2c3c4ccccc4c2N=C2N=C(N=c4c5ccccc5c(n41)=NC1=NC(=N3)c3ccccc31)c1ccccc12 [Pc 271, SiPc[OSi(CH3)2CH2CH═CH2]2]
# output 16
